# Tested on: NCI-H650
# test: relative viability (nuclei count vs DMSO), 5 days (fraction); higher = more cells survive
# assayConditions: first compound 8 µM
measuredParameter: relative viability
// print number alone

Example compounds with recorded relative viability:
compound	relative viability
C=C1C(=O)O[C@@H](CCCCCCCC)[C@@H]1C(=O)O [C-75] + Nc1nc2[nH]cc(CCc3ccc(C(=O)N[C@@H](CCC(=O)O)C(=O)O)cc3)c2c(=O)[nH]1 [Pemetrexed] (partner 0.2 µM)	0.882
C=C1C(=O)O[C@@H](CCCCCCCC)[C@@H]1C(=O)O [C-75] + Cc1nc(Nc2ncc(C(=O)Nc3c(C)cccc3Cl)s2)cc(N2CCN(CCO)CC2)n1 [Dasatinib] (partner 0.075 µM)	0.398
C=C1C(=O)O[C@@H](CCCCCCCC)[C@@H]1C(=O)O [C-75] + C[C@@H](Oc1cc(-c2cnn(C3CCNCC3)c2)cnc1N)c1c(Cl)ccc(F)c1Cl [Crizotinib] (partner 1 µM)	0.729
C=C1C(=O)O[C@@H](CCCCCCCC)[C@@H]1C(=O)O [C-75] + Cc1cc(Nc2cc(N3CCN(C)CC3)nc(Sc3ccc(NC(=O)C4CC4)cc3)n2)n[nH]1 [Tozasertib] (partner 0.1 µM)	0.62
C=C1C(=O)O[C@@H](CCCCCCCC)[C@@H]1C(=O)O [C-75] + C[C@]1(O)C[C@@H](c2nc(-c3ccc4ccc(-c5ccccc5)nc4c3)c3c(N)nccn32)C1 [Linsitinib] (partner 1 µM)	0.766

Data request: Fill blank: measured relative viability of the compound C=C1C(=O)O[C@@H](CCCCCCCC)[C@@H]1C(=O)O [C-75] + O=C(c1cc(Cc2n[nH]c(=O)c3ccccc23)ccc1F)N1CCN(C(=O)C2CC2)CC1 [Olaparib] (partner 8 µM) is ____.
Data returned: 0.4

---

# Tested on: HARA
# test: relative viability (nuclei count vs DMSO), 5 days (fraction); higher = more cells survive
# assayConditions: first compound 2.53 µM
Could you mark each record MET if its relative viability falls strictly under 0.3, and NOT MET if it equals or exceeds it?

Data request: Determine whether this compound shows relative viability lower than 0.3 (ties excluded): Oc1nc(-c2ccc(C(F)(F)F)cc2)nc2c1CSCC2 [XAV939] + Nc1ncn([C@H]2C[C@H](O)[C@@H](CO)O2)c(=O)n1 [Decitabine] (partner 2 µM)
Data returned: NOT MET

Data request: Determine whether this compound shows relative viability lower than 0.3 (ties excluded): Oc1nc(-c2ccc(C(F)(F)F)cc2)nc2c1CSCC2 [XAV939] + CC(=O)c1c(C)c2cnc(Nc3ccc(N4CCNCC4)cn3)nc2n(C2CCCC2)c1=O [Palbociclib] (partner 0.5 µM)
Data returned: MET

Data request: Determine whether this compound shows relative viability lower than 0.3 (ties excluded): C=C1C(=O)O[C@@H](CCCCCCCC)[C@@H]1C(=O)O [C-75] + CC(=O)Nc1cccc(-n2c(=O)n(C3CC3)c(=O)c3c(Nc4ccc(I)cc4F)n(C)c(=O)c(C)c32)c1 [Trametinib] (partner 0.02 µM)
Data returned: NOT MET

Data request: Determine whether this compound shows relative viability lower than 0.3 (ties excluded): Oc1nc(-c2ccc(C(F)(F)F)cc2)nc2c1CSCC2 [XAV939] + Cc1nc(NC(=O)N2CCC[C@H]2C(N)=O)sc1-c1ccnc(C(C)(C)C(F)(F)F)c1 [Alpelisib] (partner 2 µM)
Data returned: NOT MET

Hey, just so you know, these numbers are from the supplement of paper PMC10307832.
